Consider the following molecules and their measured log10 of Ki readings.
Molecular target: Rhesus PDE2A3 (Macaca mulatta)
Sequence (B3VTJ2 1-941): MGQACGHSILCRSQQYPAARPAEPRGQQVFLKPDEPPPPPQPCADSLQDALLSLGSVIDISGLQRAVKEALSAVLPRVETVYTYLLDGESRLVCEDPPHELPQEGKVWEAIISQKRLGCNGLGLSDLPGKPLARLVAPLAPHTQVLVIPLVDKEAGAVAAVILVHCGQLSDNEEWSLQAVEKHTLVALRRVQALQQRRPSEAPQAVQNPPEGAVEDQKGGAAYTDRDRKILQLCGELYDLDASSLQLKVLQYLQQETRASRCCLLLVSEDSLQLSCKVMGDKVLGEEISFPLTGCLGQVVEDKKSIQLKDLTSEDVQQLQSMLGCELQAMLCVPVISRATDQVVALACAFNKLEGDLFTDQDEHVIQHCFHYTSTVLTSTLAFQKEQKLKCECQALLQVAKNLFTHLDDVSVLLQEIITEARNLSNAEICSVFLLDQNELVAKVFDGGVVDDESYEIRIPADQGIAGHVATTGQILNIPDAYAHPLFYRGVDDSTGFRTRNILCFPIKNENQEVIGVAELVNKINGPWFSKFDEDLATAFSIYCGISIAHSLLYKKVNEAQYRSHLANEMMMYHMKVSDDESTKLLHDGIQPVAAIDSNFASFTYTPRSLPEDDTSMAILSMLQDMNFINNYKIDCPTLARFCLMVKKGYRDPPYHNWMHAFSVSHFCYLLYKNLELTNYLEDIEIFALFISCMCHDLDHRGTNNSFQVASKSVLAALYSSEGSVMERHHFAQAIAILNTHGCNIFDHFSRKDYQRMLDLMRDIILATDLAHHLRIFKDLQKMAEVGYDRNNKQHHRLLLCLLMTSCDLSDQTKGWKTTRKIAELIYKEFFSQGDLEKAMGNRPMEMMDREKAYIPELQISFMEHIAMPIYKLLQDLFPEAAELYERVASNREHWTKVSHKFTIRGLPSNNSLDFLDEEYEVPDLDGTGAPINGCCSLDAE
Experiment: PDE2 fluorescence polarization (IMAP FP) inhibition assay, rhesus PDE2A3
Type: biochemical, rhesus macaque
Settings: Lab A; read-out: Rhesus PDE2 Ki (nM) - Lab A
property_name: log10 of Ki (log10 of the value in nM)

{"molecule": "CCN(CC)c1nc(C(=O)N[C@H](C)c2ccc(C(F)(F)F)cc2)cc(=O)[nH]1", "log10 of Ki": 1.36}
{"molecule": "CC(C)[C@@H](NC(=O)c1cc(=O)[nH]c(N)n1)c1ccc(SC(F)(F)F)c(F)c1", "log10 of Ki": 1.38}
{"molecule": "CC(C)[C@@H](NC(=O)c1cc(=O)[nH]c(N2CCCC2)n1)c1ccc(SC(F)(F)F)cc1", "log10 of Ki": -0.72}
{"molecule": "COC(C)(C)CCOc1nc(C(=O)NC(C)c2ccc(C(F)(F)F)cc2)cc(=O)[nH]1 (stereo not shown)", "log10 of Ki": 2.55}
{"molecule": "COc1ccc(Oc2nc(C(=O)N[C@H](C)c3ccc(C(F)(F)F)cc3)cc(=O)[nH]2)cc1OC", "log10 of Ki": 2.86}
{"molecule": "CC[C@@H](NC(=O)c1cc(=O)[nH]c(N(C)C)n1)c1ccc(SC(F)(F)F)c(F)c1", "log10 of Ki": -0.27}
{"molecule": "C[C@@H](NC(=O)c1cc(=O)[nH]c(N(C)C)n1)c1ccc(SC(F)(F)F)c(F)c1", "log10 of Ki": -0.44}
{"molecule": "CC(NC(=O)c1cc(=O)[nH]c(OC2CCCN(C)C2)n1)c1ccc(C(F)(F)F)cc1 (stereo not shown)", "log10 of Ki": 4.74}
{"molecule": "CN(C)c1nc(C(=O)N[C@@H](c2ccc(SC(F)(F)F)cc2)C2CC2)cc(=O)[nH]1", "log10 of Ki": -0.39}
{"molecule": "C[C@@H](NC(=O)c1cc(=O)[nH]c(N(C)C)n1)c1ccc(C(F)(F)F)cc1", "log10 of Ki": 0.40}
{"molecule": "C[C@@H](NC(=O)c1cc(=O)[nH]c(N(C)C)n1)c1ccc(SC(F)(F)F)cc1", "log10 of Ki": -0.24}
{"molecule": "CN(C)c1nc(C(=O)N[C@@H](c2ccc(SC(F)(F)F)c(F)c2)C2CC2)cc(=O)[nH]1", "log10 of Ki": -0.21}
{"molecule": "CNCCCOc1nc(C(=O)NC(C)c2ccc(C(F)(F)F)cc2)cc(=O)[nH]1 (stereo not shown)", "log10 of Ki": 4.93}
{"molecule": "CCOc1nc(C(=O)N[C@H](C)c2ccc(C(F)(F)F)cc2)cc(=O)[nH]1", "log10 of Ki": 1.80}
{"molecule": "CC(C)OCCCOc1nc(C(=O)NC(C)c2ccc(C(F)(F)F)cc2)cc(=O)[nH]1 (stereo not shown)", "log10 of Ki": 1.46}
